All values here come from patent US20190144550A1.

molecular target: wild-type EGFR expressed on cells (human), P00533; experiment: flow cytometry, F98-EGFRwt cells; conditions: remark: other sources report otherwise
# MFI values compiled below

- binder: "32G8 (antibody, V domains shown) VH: EVNLVESGGGLVKPGGSLRLSCEASGFTFSYAWMSWVRQAPGKGLEWVGRIKSITDGGVIDYAAPVRNRCTISRDDSRNTLYLEMHSLKTEDTAVYYCTTIPGNDDFDMWGQGRMVTVSS VL: DIVLTQSPLSLSVTPGEPASISCRSSQSLLYSNGKNYLDWFLHKPGQSPQLLIYLGSNRASGVPDRFSGSGSGIDFILKISRVEAEDVGVYYCMQAQQTPITFGQGTRLEIK"
  MFI: 301
- binder: "21E7 (antibody, V domains shown) VH: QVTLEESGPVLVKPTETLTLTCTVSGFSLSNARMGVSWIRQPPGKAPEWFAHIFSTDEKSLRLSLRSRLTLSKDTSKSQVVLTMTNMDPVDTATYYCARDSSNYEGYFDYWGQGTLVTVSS VL: DVVLTQSPATLSVSPGERATLSCRASQSVNSNLAWYQQNPGQAPRLLIFGSSTRATGIPASFSGSGSGTEFTLTINSLQSEHSAVYYCQQYNDWPFTFGPGTKVDIK"
  MFI: 184
- binder: "11F10 (antibody, V domains shown) VH: QVTLKESGPVLVKPIETLTLTCTVCGFSLSNPRMGVSWIRQPPGKALEWLGHIFSSDEKSYRLFLRSRLSISKDTSKSQVVLTMTNMDPVDTATYYCARDSSDYEGYFDYWGQGTLVTVSS VL: EIVMTQSPATLSVSPGERTTLSCRASQSVGSNLAWYQQKPGQAPRLLIYGASTRASGVPARFSGSGSGTEFTLTISSLQSEDFAVYSCQEYNNWPFTFGQGTKVEIK"
  MFI: 187
